biological target: HIV-1 Rev (Human immunodeficiency virus 1, UniProt P04618 P04618:1-116); assay: filter; 50 mM KCl, 4 C; 17% bound at 10 nM rev; details: tags: none stated; heparin-Sepharose and Superose 6 purified; chain copies: oligomer (tetramer likely; about 4 per RBC6, 6-8 per full-length RRE at 50 mM KCl) stated; label: 32P uniform
Sequence (P04618 whole entry, one chain of several): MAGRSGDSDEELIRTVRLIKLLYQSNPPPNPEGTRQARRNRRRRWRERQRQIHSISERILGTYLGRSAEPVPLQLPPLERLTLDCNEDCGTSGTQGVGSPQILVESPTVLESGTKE
RECORDED_METRIC: pKd
Scale for pKd: -log10 of concentration given in mol/L; no unit attached.

Query: Need pKd of R54 (ssRNA, [-]) RNA: GGGAGACCGGAAUUCCGGGCGCAGUGUCAUUGACGCUGCGGUACGGAAUUCCGGCA , thanks.
Reply: 8.22

The measured values listed here are drawn from patent US5786145A.
